Sourced from patent US20230293535A1

test: In vitro rat hepatocytes clearance assay; conditions: male, rat, cryopreserved rat hepatocytes (suspension), rat hepatocytes Clint (µL/min/10^6cells), 1 µM-range incubation up to 100 min
Assign log10 of hepatocyte CLint at 1 µM to each entry below.
Field: value | Transform: log10 | Quantity: hepatocyte CLint at 1 µM | Unit: µL/min/1e6 cells

Give the measured log10 of hepatocyte CLint at 1 µM for C=CC(=O)Nc1cc(Nc2nccc(Nc3cc(Cl)c(F)cc3C(C)(C)O)n2)c(OC)cc1N1CC[C@@H](N(C)C)C1
1.12

Give the measured log10 of hepatocyte CLint at 1 µM for [2H]C([2H])([2H])N(CCN(C)c1cc(OC)c(Nc2ncnc(Nc3cc(F)c(F)cc3C(C)(C)O)n2)cc1NC(=O)C=C)C([2H])([2H])[2H]
1.89

Give the measured log10 of hepatocyte CLint at 1 µM for [2H]C([2H])([2H])N(CCN(C)c1cc(OC)c(Nc2ncnc(Nc3cc(F)c(Cl)cc3C(C)(C)O)n2)cc1NC(=O)C=C)C([2H])([2H])[2H]
1.83

Give the measured log10 of hepatocyte CLint at 1 µM for C=CC(=O)Nc1cc(Nc2ncnc(Nc3cc(Cl)c(F)cc3C(C)(C)O)n2)c(OC)cc1N1CC[C@@H](NC)C1
0.79

Give the measured log10 of hepatocyte CLint at 1 µM for C=CC(=O)Nc1cc(Nc2nccc(Nc3cc(Cl)c(F)cc3C(C)(C)O)n2)c(OC)cc1N1CC[C@@H](CN(C)C)C1
1.21
